TESTED TARGET: Cy5-labeled DNA aptamer
METHOD NOTES: Ratiometric measurement with a standard fluorescence microplate-reader, AMP dilution series (Example 1)
Type: binding
PROTOCOL CONDITIONS: 20 nM Cy5-labeled DNA aptamer, read-out: dissociation constant (Kd), midpoint of dose-response curve
pKd: −log10 of the molar value.
REPORTED METRIC: pKd

Query: # input molecule: Nc1ncnc2c1ncn2[C@@H]1O[C@H](COP(=O)(O)O)[C@@H](O)[C@H]1O [AMP, adenosine monophosphate] ; wanted: its pKd
Reply: 4.52 to 4.70
